molecular target: Voltage-gated potassium channel subunit beta-2 (Rattus norvegicus) (UniProt P62483); assay: KvBeta enzyme negative modulators, primary screen, biochemical, NADPH fluorescence (AID 622); details: recombinant KvBeta, 4-cyanobenzaldehyde reduction, at 10 µM, hits give high values;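 further: slope of raw intensity against log time taken from 70 to 1610 s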
Sequence (P62483 whole entry, looked up): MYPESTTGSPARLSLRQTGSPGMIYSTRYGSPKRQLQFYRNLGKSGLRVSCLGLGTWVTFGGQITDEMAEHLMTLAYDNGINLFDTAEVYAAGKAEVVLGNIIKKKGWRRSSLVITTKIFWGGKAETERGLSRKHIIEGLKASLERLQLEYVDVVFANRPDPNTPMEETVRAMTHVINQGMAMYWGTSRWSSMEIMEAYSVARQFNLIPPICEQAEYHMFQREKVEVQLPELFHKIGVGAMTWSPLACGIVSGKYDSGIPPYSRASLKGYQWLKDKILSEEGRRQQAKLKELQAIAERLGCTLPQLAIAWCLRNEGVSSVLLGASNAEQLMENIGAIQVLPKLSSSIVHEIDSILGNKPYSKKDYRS
reported endpoint: fluorescence slope
Reply with the value as a number alone.

input: Which fluorescence slope reading was recorded for the compound CC(C)CNc1nc2c(c(=O)n(C)c(=O)n2C)n1Cc1cccc(Br)c1 ?
output: -0.498

input: Moving on to O=P(O)(CN1CCCCCC1)CN1CCCCCC1
output: -0.484

input: Moving on to CCn1c(C(C#N)/C(=N\S(=O)(=O)c2cccs2)c2ccccc2)nc2ccccc21 (stereo not drawn)
output: -0.493

These measurements were taken from PubChem BioAssay.
